species on record: Rattus norvegicus; assay: Open TG-GATES - Regimen: Daily Repeat; format: toxicity, organism-based, Sprague-Dawley; set-up: regimen Daily Repeat, gender Male, age 6 weeks; details: in vivo, po, 0 mg/kg, […], tissue Blood, route gavage, dose level Control, time 14 day
experimental readout: Eos (%)
Only the number, expressed in %, is required.

Input: Requested read-out: Eos. Entry: C=CCO
Output: 1

Input: I have this compound here, COc1ccc(O)c(C(C)(C)C)c1.COc1ccc(O)cc1C(C)(C)C [BUTYLATED HYDROXYANISOLE] , and I need its recorded Eos.
Output: 0.6

Input: Dear colleague, I am looking for the recorded Eos of the following compound: O=P1(N(CCCl)CCCl)NCCCO1 (stereo not given) [CYCLOPHOSPHAMIDE ANHYDROUS]
Output: 1

Input: I'd like to know its Eos. The compound in question is Cc1cnc(NC(=O)C2=C(O)c3ccccc3S(=O)(=O)N2C)s1
Output: 0.8

Input: Look up Eos: Cn1cnc([N+](=O)[O-])c1Sc1ncnc2nc[nH]c12
Output: 0.8

----------
organism: Rattus norvegicus; assay: Open TG-GATES - Regimen: Daily Repeat; type: toxicity, organism-based, Sprague-Dawley; set-up: regimen Daily Repeat, gender Male, age 6 weeks; conditions: in vivo, po, 0 mg/kg, […], tissue Blood, route gavage, dose level Control, time 7 day
experimental readout: MCH (pg)
Please respond with the number in pg and leave the unit unwritten.

Input: Consider the compound shown here: Cn1cnc([N+](=O)[O-])c1Sc1ncnc2nc[nH]c12 [AZATHIOPRINE] What is its recorded MCH?
Output: 21.9

Input: Could you share which MCH value was measured for Cc1cnc(NC(=O)C2=C(O)c3ccccc3S(=O)(=O)N2C)s1 [MELOXICAM] ?
Output: 21.4

Input: May I ask what MCH has been recorded for O=C1CN(/N=C/c2ccc(-c3ccc([N+](=O)[O-])cc3)o2)C(O)=N1 [DANTROLENE] ?
Output: 21

Input: Requested field: MCH. Item: C=CCO [ALLYL ALCOHOL]
Output: 20.9

Input: Tell me the measured MCH of Cc1cccc(Nc2cc(Cl)nc(SCC(=O)O)n2)c1C [PIRINIXIC ACID] , please.
Output: 21.7

----------
species: Rattus norvegicus; assay: Open TG-GATES - Regimen: Single; type: toxicity, organism-based, Sprague-Dawley; set-up: regimen Single, gender Male, age 6 weeks; conditions: in vivo, po, 0 mg/kg, 9 h, tissue Plasma, route gavage, dose level Control
Field: Cl. Provide a value for each of the compounds that follow.
Reply with a number, then the unit it belongs to.

Input: Please report the recorded Cl for C=CCO .
Output: 101.6 meq/L

Input: What does the data say about its Cl? Entry: COc1ccc(Cl)cc1C(=O)NCCc1ccc(S(=O)(=O)NC(=O)NC2CCCCC2)cc1 [GLYBURIDE]
Output: 102.2 meq/L

Input: Cl for S=C=Nc1cccc2ccccc12 [1-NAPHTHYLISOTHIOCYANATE] ?
Output: 103.6 meq/L

Input: # query: Cl of entry Cn1cnc([N+](=O)[O-])c1Sc1ncnc2nc[nH]c12
Output: 105.6 meq/L

Input: Dear colleague, I am looking for the recorded Cl of the following compound: COc1ccc(O)c(C(C)(C)C)c1.COc1ccc(O)cc1C(C)(C)C [BUTYLATED HYDROXYANISOLE]
Output: 106.2 meq/L
